Cited source: ChEMBL document CHEMBL3045074

Tested on: Mus musculus
Measurement protocol: Anticonvulsant activity in Swiss albino Mus musculus (mouse) assessed as protection against maximal electroshock-induced seizures at 300 mg/kg, ip after 0.5 hr
Type: functional, organism-based
Design: dose 300 mg/kg
The source made the active and inactive calls. No cut-off for these calls is given here.

Compound | Target under test | Activity
CCC1(C)CC(=O)NC1=O (stereo not drawn) [ETHOSUXIMIDE] | Mus musculus | inactive
Cc1nc2ccccc2c(=O)n1-c1ccc(C(=O)N2N=C(c3ccccc3)CC2c2cccc([N+](=O)[O-])c2)cc1 (stereo not drawn) | Mus musculus | inactive
Cc1nc2c(Br)cc(Br)cc2c(=O)n1-c1ccc(C(=O)N2N=C(c3ccccc3)CC2c2cccc([N+](=O)[O-])c2)cc1 (stereo not drawn) | Mus musculus | inactive
